Test system: MS2 coat protein
ASSAY: apparent KD of MS2 coat protein; designed switch direction (-1 OFF switch, 1 ON switch): -1; higher = weaker reporter binding
PROTOCOL_CONDITIONS: Eterna round: R95; input ligand: microRNA oligo, concentration not stated
Measured apparent KD of MS2 coat protein by item

{"ORDERED_RESIDUES": "GAUAAGGUAGGAUAUACGAAUAAAGAGGGUAGUAAUAAUACACAUGAGGAUCACCCAUGUAGAAGGACCAAUAG [Mat - Exclusion 2 - Mod of my Tesla design - D42] (puzzle: Exclusion 2)", "apparent KD of MS2 coat protein": "19.3 nM"}
{"ORDERED_RESIDUES": "UUUUAACAUGAGGAUCACCCAUGUGAGGAUAUCGAAAUUUAUAUUAAUAUUAUUUUUACGAGAAGGCACAUUUU [JMF 50] (puzzle: Exclusion 1)", "apparent KD of MS2 coat protein": "99.2 nM"}
{"ORDERED_RESIDUES": "CUUCAGUCAGGAUAUCUGCACGCUGGUGAGACCGGACGGAAGGAGAAGGGACAUGAGGAUCACCCAUGUAAAGC [Xesoar] (puzzle: Exclusion 4)", "apparent KD of MS2 coat protein": "15.7 nM"}
{"ORDERED_RESIDUES": "AAUAUGUGAGGAUAUGCUUUAAGAAGAAUGAGUUUGAAAUAACAUGAGGAUCACCCAUGUAGAAGGCGCUAAAA [Lollin - Beta 1] (puzzle: Exclusion 2)", "apparent KD of MS2 coat protein": "19.3 nM"}
{"ORDERED_RESIDUES": "GGUUGGCGAGGAUAUACAUGAGGAUCACCCAUGUGAGAGAAAACAGUGAGGAAGAAAAGUAGAAGGCGCUGACG [salish99_ex3_r3_024] (puzzle: Exclusion 3)", "apparent KD of MS2 coat protein": "52.6 nM"}
